The measurements presented in this section are drawn from ChEMBL document CHEMBL1201862.

Test system: MOLT-4
Assay: NCI tumour cell line growth inhibition, 48 h
Active and inactive are the calls of the source. No stated cut-off is given here; in the data, active = GI50 up to about 1.1 µM and inactive = higher.
readout.name: GI50

Recorded GI50, per entry:
compound | meas.value
O=C(CCc1nnc2s/c(=C\c3ccccc3)c(=O)n12)Nc1cc(Cl)ccc1Cl | > 100 µM (inactive)
CCCC(C(=O)OC)C1N/C(=N/C#N)N(Cc2ccccc2)C1=O (stereo not given) | > 100 µM (inactive)
CC(=O)OC1CCn2c1nc1cc([N+](=O)[O-])c(C)cc12 (stereo not given) | > 100 µM (inactive)

# map each compound to its GI50
1. O=CN/C=C\c1cc(O)ccc1O
2. Cn1cnc([N+](=O)[O-])c1Sc1ccccn1

Outgoing:
["18.2 µM (inactive)", "38.5 µM (inactive)"]

* * *

System: RXF 393
Experiment: NCI tumour cell line growth inhibition, 48 h
Calls of active or inactive are those of the source. Cut-off read from the data, not from the text of the source: active = GI50 up to about 1.1 µM and inactive = higher.
Hello, when you answer, please use one of the following outcomes: active, inactive

// below: answered compounds
compound | cat
COc1ccccc1/C=C\c1cc(OC)c(OC)c(OC)c1 | inactive
CN(C)CC1CCC/C(=C\c2ccc(N(C)C)cc2)C1=O (centres undefined) | inactive
COc1cc(O)c2c(c1)OCC(Cc1ccc(O)cc1)C2=O (centres undefined) | inactive

Consider the additional compound presented here.
Incoming: Dear all, I need the recorded test outcome for `O=C1C=CC(=O)c2c(O)ccc(O)c21` , thank you.
Outgoing: active

* * *

System: SK-MEL-28
Experiment: NCI tumour cell line growth inhibition, 48 h
Calls of active or inactive are those of the source. No stated cut-off is given here; in the data, active = GI50 up to about 1.1 µM and inactive = higher.
Record form. Attribute: GI50. Fill in for each entry.

Some solved entries appear below for comparison.
compound | GI50
O=C(c1ccccc1)c1ccc2c(c1)NC(=O)c1ccccc1SSc1ccccc1C(=O)N2 | > 100 µM (inactive)
Cc1ccc2nc3c(C)c(Cl)c(=O)cc-3sc2c1 | 32.7 µM (inactive)
CN(C)c1ccc(-c2cc(O)c3ccccc3n2)cc1 | > 100 µM (inactive)
COC(=O)C(Cc1c[nH]c2ccccc12)NP(=O)(O)OCC1OC(n2cc(I)c(=O)[nH]c2=O)CC1O (stereo not given) | > 100 µM (inactive)

Value of GI50 reported for the compound C[C@]12CCC(=O)C=C1CC[C@@H]1C2CC[C@]2(C)Nc3c(ncn3-c3ccc(F)cc3)CC12 (stereo not given in full) is 29.3 µM (inactive)

* * *

System: HCT-116
Assay: NCI tumour cell line growth inhibition, 48 h
The source made the active and inactive calls. Cut-off read from the data, not from the text of the source: active = GI50 up to about 1.1 µM and inactive = higher.
readout.name: GI50

molecule | GI50
CN(C)c1ccc(/C=c2\sc3nc4ccccc4n3c2=O)cc1 | > 100 µM (inactive)
C=CCN(N=O)C(=O)ON1C(=O)CCC1=O | > 100 µM (inactive)
NC(=O)Nc1c([N+](=O)[O-])cc(C(F)(F)F)cc1[N+](=O)[O-] | 59.4 µM (inactive)
O=C(O)C1OC1C(=O)O (configuration not stated) | > 100 µM (inactive)
O=C1O[B-](c2ccccc2)(c2ccccc2)[NH+]2CCCC12 (configuration not stated) | 47 µM (inactive)
N#Cc1c(O)cc(=O)n2c1[nH]c1ccccc12 | > 100 µM (inactive)

Next:
The reported GI50 of the molecule `O=C1CSC(C(/N=N/c2ccccc2)=C2Nc3ccccc3N2)=N1` was 32.4 µM (inactive)

* * *

Test system: U-251
Assay: NCI tumour cell line growth inhibition, 48 h
The source made the active and inactive calls. No stated cut-off is given here; in the data, active = GI50 up to about 1.1 µM and inactive = higher.
Can you tell me GI50 for the items I'm about to list?

Some solved entries appear below for comparison.
compound | test.system | GI50
CN1C(=O)N(C)C(O)C(Cl)(Br)C1=O (stereo not given) | U-251 | > 100 µM (inactive)
CCCCCCCCP(=O)(O)OP(=O)(O)OCC1OC(n2ccc(N)nc2=O)C(O)C1O (stereo not given) | U-251 | > 100 µM (inactive)
CC(C)=Cc1cc2c(cc1O)CCC1C2CC[C@@]2(C)C1CC[C@@H]2O (stereo not given in full) | U-251 | 10.4 µM (inactive)
O=[N+]([O-])c1cccc(/C=N/N=c2\ccc3ccccc3[nH]2)c1O | U-251 | 1.11 µM (active)

Briefly, GI50 measured for `C=CCN(N=O)C(=O)ON1C(=O)CCC1=O` : 17.7 µM (inactive)

* * *

System: MDA-MB-435
Assay: NCI tumour cell line growth inhibition, 48 h
Calls of active or inactive are those of the source. Cut-off read from the data, not from the text of the source: active = GI50 up to about 1.1 µM and inactive = higher.
Choose the fitting class; nothing outside active, inactive is accepted.

Example cases with answers are listed next.
compound | cat
COc1ccc(C(O)(c2ccccc2)c2nccc3ccccc23)cc1 (stereo unspecified) | inactive
Cc1cc(=O)oc2cc(OCc3c(F)cccc3Cl)ccc12 | inactive
CCOC(=O)Cn1c(=O)c2nc(SC)sc2n(-c2ccc(C)cc2)c1=S | inactive
CC12CCC(C/C1=N\NC(N)=O)C2(C)C (stereo unspecified) | inactive
CCOc1ccccc1Nc1ccc(N)cc1S(=O)(=O)O | inactive

Then there is this compound:
Incoming: What did this assay record as the result for `Cc1nc(C)c(Cc2ccccc2)o1` ?
Outgoing: inactive

* * *

System: COLO 205
Assay: NCI tumour cell line growth inhibition, 48 h
Activity calls are given as the source filed them. Cut-off read from the data, not from the text of the source: active = GI50 up to about 1.1 µM and inactive = higher. Bridge positions count the residues as written; N and C are the ends. Square brackets hold non-standard residues; d marks the D form. Peptide text beside a SMILES is read from it. * marks the point of attachment. Cya = N[CH](CS(=O)(=O)O)C(=O)O; X49 = CC(C)CCCCCCCC(O)CC(=O)*; GABA = NCCCC(=O)O
Kindly state GI50 for each of the entries shown.

Parameter requested: GI50. Apply to each item below.
1. N#CCCN(CCC#N)c1ccc(/C=C2\N=C(c3ccccc3)N(NC(N)=S)C2=O)cc1
2. NC(C(F)(F)F)(C(F)(F)F)P(=O)(Cc1ccccc1)Cc1ccccc1
3. COP(=O)(OC)C(O)/C=C/c1ccco1 (centres undefined)
4. CN(c1ccccc1Cl)S(=O)(=O)c1ccccc1[N+](=O)[O-]
5. Nc1ccccc1N
6. CC(C)C1=Cc2ccc3c(c2C(=O)C1=O)CCCC3(C)C
7. Cc1cccc2cc3c(ccc4ccccc43)c[n+]12

Outgoing:
> 100 µM (inactive)
> 100 µM (inactive)
> 100 µM (inactive)
34.2 µM (inactive)
> 100 µM (inactive)
4.19 µM (inactive)
13.3 µM (inactive)

Report GI50 for each item below.
1. Cc1c(N)nc([C@H](CC(N)=O)NC[C@H](N)C(N)=O)nc1C(=O)N[C@H](C(=O)N[C@H](C)[C@@H](O)[C@H](C)C(=O)N[C@H](C(=O)NCCc1nc(-c2nc(C(=O)NCCC[S+](C)C)cs2)cs1)[C@@H](C)O)C(OC1OC(CO)C(O)C(O)C1OC1OC(CO)C(O)C(OC(N)=O)C1O)c1c[nH]cn1 (some centres undefined)
2. CC(C)CCCCCCCC(O)CC(=O)NC(CS(=O)(=O)O)C(=O)NC(CC(C)C)C(=O)NCCCC(=O)NC(Cc1c[nH]cn1)C(=O)NC(C)C(=O)NC1C(=O)NC(C(C)O)C(=O)NC(Cc2c[nH]cn2)C(=O)NC(C)C(=O)NC(C(C)O)C(=O)OC1C (centres undefined) (X49-[Cya]L[GABA]HATTHAT; ester 6-C; configuration not given here)
3. Nc1ccn(C2OC(C(OC3OC(CO)C(O)C(N)C3O)C(O)C(O)C(O)C(O)CO)C(N)C(O)C2O)c(=O)n1 (centres undefined)
4. O=C1C=C2CCC[C@H]3OC(=O)C[C@@]23CC1
5. CSc1nc(=S)[nH]c2[nH]nc(C)c12

Outgoing:
6.05 µM (inactive)
> 25 µM (inactive)
> 100 µM (inactive)
> 100 µM (inactive)
> 100 µM (inactive)

Would you mind giving GI50 for every molecule in the list below?
1. Cc1cccc(C)c1NC(=O)C(=O)CC(=O)c1sc(Nc2c(C)cccc2C)nc1C
2. N#CC(C#N)=Cc1ccc(CP(=O)(O)O)cc1

Outgoing:
["> 100 µM (inactive)", "> 100 µM (inactive)"]

* * *

Answer each item with its documented GI50.
System: HOP-62
Test: NCI tumour cell line growth inhibition, 48 h
The source made the active and inactive calls. Rule as the data show it: active = GI50 up to about 1.1 µM and inactive = higher.

compound | test.system | meas.value
Cn1c(-c2cccs2)cc(-c2ccsc2)c1-c1cccs1 | HOP-62 | > 100 µM (inactive)
Cn1c(=O)c(C(c2ccc([N+](=O)[O-])cc2)c2c(O)c3ccccc3n(C)c2=O)cc2ccccc21 (centres undefined) | HOP-62 | 27.7 µM (inactive)
CC[C@H](C)C1=C(O)[N@+]2([O-])Oc3ccc(-c4c(O)c(O)c(-c5ccc(OC(C)=O)cc5)c(OC(C)=O)c4OC(C)=O)cc3O[C@]2([C@@H](C)CC)C(=O)N1O | HOP-62 | 32 µM (inactive)

With those in mind, consider the next compound.
Test item `CCOC(=O)C1=C(Nc2cccc3ccccc23)OC/C1=N\NC(=O)c1ccccc1O` ; HOP-62; reported GI50 was 13.5 µM (inactive)
